Below is a list of entries, each paired with its recorded GI50 value.
System: SNB-19
Assay: NCI tumour cell line growth inhibition, 48 h
Calls of active or inactive are those of the source. No stated cut-off is given here; in the data, active = GI50 up to about 1.1 µM and inactive = higher.

Worked cases, answers included:
Prompt: Return GI50 for the following molecule: `Oc1nc2c(c(-c3ccc(Br)cc3)n1)COC/C2=C\c1ccc(Br)cc1`
Response: > 50 µM (inactive)

Prompt: Return GI50 for the following molecule: `Cn1cnc2c(OCC3CCCCC3)nc(N)nc21`
Response: > 100 µM (inactive)

Prompt: Return GI50 for the following molecule: `O=C(c1cccs1)N1CCc2ccccc2C1`
Response: > 100 µM (inactive)

More entries:
Prompt: Return GI50 for the following molecule: `c1cc(-c2cn3c(n2)SCC3)ccn1`
Response: > 100 µM (inactive)

Prompt: Return GI50 for the following molecule: CCOC(=O)c1cc(C2(O)CCN(Cc3ccccc3)C2=O)c(-c2cc(C)no2)[nH]1 (stereo not given)
Response: 81.1 µM (inactive)

Prompt: Return GI50 for the following molecule: `C[C@@H]1CC[C@@H]2[C@@H](C1)O[C@@H]([C@@H](C)OCc1ccccc1)SC2(C)C`
Response: 19 µM (inactive)

Prompt: Return GI50 for the following molecule: CC(C)(C)C(=O)CC1(O)C=C(O)C(O)(CC(=O)C(C)(C)C)O1 (stereo not given)
Response: 36.8 µM (inactive)

Prompt: Return GI50 for the following molecule: CC(=O)NC1C(O)CC(OCCCSCCN)(C(=O)O)OC1C(O)C(O)CO (stereo not given)
Response: > 100 µM (inactive)

Prompt: Return GI50 for the following molecule: CC[C@@H]1NC(C(=O)OC)Cc2c1[nH]c1ccccc21 (stereo not given in full)
Response: > 100 µM (inactive)

Prompt: Return GI50 for the following molecule: `Cc1nc(-n2nc(-c3ccccc3)cc2-c2ccccc2)sc1C(=O)CC(=O)C(=O)Nc1ccc(Cl)c(Cl)c1`
Response: 79.4 µM (inactive)

---

Tested on: HOP-62
Experiment: NCI tumour cell line growth inhibition, 48 h
Calls of active or inactive are those of the source. Rule as the data show it: active = GI50 up to about 1.1 µM and inactive = higher.
Mark one answer only. Choices: class 1 (active), class 0 (inactive)

Use the examples below as a reference point.
Prompt: Returns: the outcome recorded for `Cc1c2c(C(N)=O)nccc2c(C)c2c1c1ccccc1n2Cc1ccccc1` in this assay.
Response: class 0

Prompt: Returns: the outcome recorded for `CC1=C(O)C(=O)C=C2C1=CC=C1[C@@]2(C)CC[C@@]2(C)[C@@H]3C[C@](C)(C(=O)O)CC[C@]3(C)CC[C@]12C` in this assay.
Response: class 1

Prompt: Returns: the outcome recorded for `Cc1ccsc1/C=N/Nc1cnccn1` in this assay.
Response: class 0

Prompt: Returns: the outcome recorded for `O=C(O)c1cc2ccccc2c2c1C(=O)c1ccccc1-2` in this assay.
Response: class 0

Prompt: Returns: the outcome recorded for COc1ccc(C2C(Cl)C(=O)N2NC(=O)c2ccc(NC(C)=O)cc2)cc1 (stereo unspecified) in this assay.
Response: class 0

More entries:
Prompt: Returns: the outcome recorded for Cc1[nH]c2ccccc2c1C1Cc2ccccc2N1C(=O)C#Cc1ccc([N+](=O)[O-])cc1 (stereo unspecified) in this assay.
Response: class 0

---

Test system: OVCAR-3
Assay: NCI tumour cell line growth inhibition, 48 h
Calls of active or inactive are those of the source. Rule as the data show it: active = GI50 up to about 1.1 µM and inactive = higher.
Below is a list of entries, each paired with its recorded GI50 value.

Worked cases, answers included:
Prompt: Return GI50 for the following compound: `COc1ccc(/N=N/C(=N\c2ccccc2)c2ccc(N(CCC#N)CCC#N)cc2)cc1`
Response: 18 µM (inactive)

Prompt: Return GI50 for the following compound: `CCN(CC)c1ccc2c(c1)Nc1cc(=C(C#N)C#N)c3ccccc3c1=N2`
Response: > 100 µM (inactive)

Prompt: Return GI50 for the following compound: Cc1cccc(C(C)(C)C)c1NC(=O)CC1C(=O)Nc2ccccc2S1(=O)=O (stereo unspecified)
Response: 5.55 µM (inactive)

Prompt: Return GI50 for the following compound: `CSC1=N/C(=C\c2ccc(Cl)cc2)C(=O)N1CN1CCCCC1`
Response: 34.2 µM (inactive)

Prompt: Return GI50 for the following compound: `CCCNC(=S)N/C=C1/C(=O)C=C(C)OC1=O`
Response: > 100 µM (inactive)

More entries:
Prompt: Return GI50 for the following compound: `CN(C)CCNC(=O)c1cccc2[nH]c(-c3ccccn3)nc12`
Response: 30.7 µM (inactive)

Prompt: Return GI50 for the following compound: `CN(C)c1ccc(/C=C2\N=C(c3ccc([N+](=O)[O-])cc3)OC2=O)cc1`
Response: 44.9 µM (inactive)

Prompt: Return GI50 for the following compound: `N#Cc1nc(CCN2C(=O)c3ccccc3C2=O)oc1N`
Response: > 100 µM (inactive)

Prompt: Return GI50 for the following compound: O=C1NC2ON=C(c3ccccc3)C2C2ON=C(c3ccccc3)N12 (stereo unspecified)
Response: > 100 µM (inactive)

Prompt: Return GI50 for the following compound: `O=C1/C(=C2\SCC(=O)N2c2ccccc2)SC(=S)N1c1ccccc1`
Response: 27.8 µM (inactive)

Prompt: Return GI50 for the following compound: C#CC1NC(=O)C1N(CC)CC (stereo unspecified)
Response: > 100 µM (inactive)
